endpoint label: melting point

COc1cc(C#Cc2cnc(N)nc2N)cc(OC)c1OC = 202 to 204 °C
CNc1ccc(C#Cc2cncc(-c3nc(NC)nc4cc(OC)c(OC)cc34)c2)cn1 = 160 to 162 °C
O=C(CCl)Nc1c(I)cc(I)c(C(=O)O)c1I = 253 to 255 °C
CC(C)CC(NC(=O)C(Cc1ccccc1)NC(=O)C1CCCCC1CS)C(=O)O (stereo unspecified) = 156 to 158 °C
CCCNc1nc(N)c2ncn(C3C=CCCC3)c2n1 (stereo unspecified) = 73 to 80 °C

input: Fill in reported melting point for this entry: `COC(=O)CCCc1cc2nc(C)ccc2n1S(=O)(=O)c1ccccc1`
output: 91 to 94 °C

input: Please indicate melting point recorded for CN(CC(O)c1ccc(C=O)cc1)C(=O)OC(C)(C)C (stereo unspecified)
output: 37 to 39 °C

input: Recall and state the measured melting point for `CC1(CN(c2ccc(Cl)cc2)S(C)(=O)=O)SCCS1` .
output: 114 to 117 °C

input: Return melting point for the following molecule: `NS(=O)(=O)c1ccc(-c2nc(C(F)(F)F)[nH]c2-c2ccc(F)cc2)cc1`
output: 259 to 260 °C

input: Dear colleague, please send me the reported melting point for Cn1cc(C2CCC(=O)C2)c2cc(F)ccc21 (stereo unspecified) when you can.
output: 104 to 105 °C

input: Determine its reported melting point: `CCn1ncc2c(-c3cncc(C)c3)c(C(=O)NCc3ccc(OC)cc3)c(-c3ccccc3)nc21`
output: 203 to 204 °C
